- target_of_assay: Rac GTPase-activating protein 1 (Homo sapiens, UniProt Q9H0H5)
- Sequence (Q9H0H5 whole entry): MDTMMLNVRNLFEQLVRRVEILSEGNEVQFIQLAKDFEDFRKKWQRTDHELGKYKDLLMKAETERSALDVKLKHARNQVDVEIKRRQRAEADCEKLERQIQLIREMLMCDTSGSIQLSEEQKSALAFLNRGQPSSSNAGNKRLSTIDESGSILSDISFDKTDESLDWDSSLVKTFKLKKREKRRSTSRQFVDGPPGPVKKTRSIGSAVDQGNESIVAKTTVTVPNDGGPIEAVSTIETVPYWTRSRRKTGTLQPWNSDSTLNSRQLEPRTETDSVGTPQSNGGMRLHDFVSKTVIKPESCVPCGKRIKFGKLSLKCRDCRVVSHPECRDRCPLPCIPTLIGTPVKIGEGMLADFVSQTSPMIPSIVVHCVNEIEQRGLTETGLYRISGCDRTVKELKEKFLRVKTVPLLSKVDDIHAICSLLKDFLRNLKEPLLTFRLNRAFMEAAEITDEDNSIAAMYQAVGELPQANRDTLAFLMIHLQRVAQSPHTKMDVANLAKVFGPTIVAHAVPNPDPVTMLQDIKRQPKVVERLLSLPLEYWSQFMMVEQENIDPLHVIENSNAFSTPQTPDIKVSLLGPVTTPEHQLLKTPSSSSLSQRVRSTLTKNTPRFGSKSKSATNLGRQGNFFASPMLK
- assay_notes: MgcRacGAP GTPase-activating activity inhibitors, confirmation, biochemical, ADP Hunter fluorescence, primary and confirmatory (AID 624330)
- Assay type: functional
Activity calls are given as the source filed them. No rule for the calls is given here.
Measured IC50 values are reported for all entries that follow.
measurement_name: IC50

* CCN1CCN(CC(=O)N/N=C/c2cc(Br)cs2)CC1 | 94.2 µM (active)
* Cc1cnc(NC(=O)CN2CCN(c3ccccc3F)CC2)s1 | 150 µM (active)
* CCOc1cc(-c2nc3ccccc3s2)ccc1O | 33.4 µM (active)
* COc1ccc(O)c(/C=N/NC(=O)c2c(C)nnn2-c2nonc2N)c1 | 79.7 µM (active)
* COc1cc(/C=c2\sc3n(c2=O)CCCN=3)ccc1O | 15.6 µM (active)

All figures here come from ChEMBL document CHEMBL1201862.
